B1: STX5 (parent)
chain: RSEFTLMAKRIGKDLSNTFAKLEK

Variants of: B1
Experiment: protein stability index of a GFP-peptide fusion (GPS, HEK-293T) (PSI 1-6); higher = more stable;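 further: lentivirally expressed fusions sorted by FACS into six bins by GFP to DsRed ratio, PSI derived from sequencing read proportions per bin multiplied by bin number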
Conditions: c terminus: a fixed tail appended
Measured protein stability index determines class: bottom range: < 2; center range: ≥ 2 and < 3; top range: ≥ 3

Prompt line: Just checking, what class would you give `RSEFTLMAKRIGKDLSNTAAKLEK` here?
Response line: center range

Prompt line: Just checking, what class would you give `RSEFNLMAKRIGKDLSNTFAKLEK` here?
Response line: center range

Prompt line: Just checking, what class would you give `RSEFTLYAKRIGKDLSNTFAKLEK` here?
Response line: center range

Prompt line: Just checking, what class would you give `RSEFTLMAKRIGKDLSNTFTKLEK` here?
Response line: center range

Prompt line: Just checking, what class would you give `RSEYTLMAKRIGKDLSNTFAKLEK` here?
Response line: center range

Prompt line: Just checking, what class would you give `RSERTLMAKRIGKDLSNTFAKLEK` here?
Response line: top range

Prompt line: Just checking, what class would you give `RFEFTLMAKRIGKDLSNTFAKLEK` here?
Response line: center range

Prompt line: Just checking, what class would you give `RSEFTLMAKRIGKDLSNTFMKLEK` here?
Response line: center range

Prompt line: Just checking, what class would you give `RSEGTLMAKRIGKDLSNTFAKLEK` here?
Response line: top range

Prompt line: Just checking, what class would you give `RSEFTLMAKRIGQDLSNTFAKLEK` here?
Response line: center range

Prompt line: Just checking, what class would you give `RSEFTLMAKRIGKDLQNTFAKLEK` here?
Response line: center range

Prompt line: Just checking, what class would you give `RSEFTLMAKRIGKDLSNTFANLEK` here?
Response line: bottom range

Prompt line: Just checking, what class would you give `RSEFHLMAKRIGKDLSNTFAKLEK` here?
Response line: center range

Prompt line: Just checking, what class would you give `RSEFTLMAKRIGKDLSNTFDKLEK` here?
Response line: center range

Prompt line: Just checking, what class would you give `RSEFTLMAKRIGKQLSNTFAKLEK` here?
Response line: top range

Prompt line: Just checking, what class would you give `RSEFTLMAKRIGKDLENTFAKLEK` here?
Response line: bottom range

Prompt line: Just checking, what class would you give `RSEFTLMAKRIGKDLSNTQAKLEK` here?
Response line: top range

Prompt line: Just checking, what class would you give `RSEFTLMAKRIGKDLSNTFAILEK` here?
Response line: center range

Prompt line: Just checking, what class would you give `RSTFTLMAKRIGKDLSNTFAKLEK` here?
Response line: top range

Prompt line: Just checking, what class would you give `RSEFTLAAKRIGKDLSNTFAKLEK` here?
Response line: bottom range

Prompt line: Just checking, what class would you give `RSEFTLMAKRIGKDPSNTFAKLEK` here?
Response line: top range

Prompt line: Just checking, what class would you give `RSEFTLMAKVIGKDLSNTFAKLEK` here?
Response line: bottom range

Prompt line: Just checking, what class would you give `RSEFTLMADRIGKDLSNTFAKLEK` here?
Response line: center range

Prompt line: Just checking, what class would you give `RSEFTLMAKRGGKDLSNTFAKLEK` here?
Response line: top range

Prompt line: Just checking, what class would you give `RSEFTLMAKRIGKDLSNTFAKVEK` here?
Response line: bottom range

Prompt line: Just checking, what class would you give `RSEFWLMAKRIGKDLSNTFAKLEK` here?
Response line: center range

Prompt line: Just checking, what class would you give `DSEFTLMAKRIGKDLSNTFAKLEK` here?
Response line: bottom range

Prompt line: Just checking, what class would you give `RSEFQLMAKRIGKDLSNTFAKLEK` here?
Response line: bottom range

Prompt line: Just checking, what class would you give `RSEFTLMAKRILKDLSNTFAKLEK` here?
Response line: top range

Prompt line: Just checking, what class would you give `RSEFTLMAHRIGKDLSNTFAKLEK` here?
Response line: center range

Prompt line: Just checking, what class would you give `RSEFTLMAKRISKDLSNTFAKLEK` here?
Response line: top range

Prompt line: Just checking, what class would you give `RSEFTLMAKRCGKDLSNTFAKLEK` here?
Response line: center range

Prompt line: Just checking, what class would you give `RSEFTLMAKRIGKDLSNIFAKLEK` here?
Response line: top range

Prompt line: Just checking, what class would you give `RSEFTLMAKRIGKDLSNTFAKLPK` here?
Response line: center range

Prompt line: Just checking, what class would you give `RSEFTLMAKRIGKILSNTFAKLEK` here?
Response line: top range

Prompt line: Just checking, what class would you give `RSEFTLMAKRIGKDLGNTFAKLEK` here?
Response line: center range

Prompt line: Just checking, what class would you give `RSEFTLMAKRIGKVLSNTFAKLEK` here?
Response line: center range

Prompt line: Just checking, what class would you give `RSHFTLMAKRIGKDLSNTFAKLEK` here?
Response line: center range

Prompt line: Just checking, what class would you give `RDEFTLMAKRIGKDLSNTFAKLEK` here?
Response line: bottom range

Prompt line: Just checking, what class would you give `RGEFTLMAKRIGKDLSNTFAKLEK` here?
Response line: bottom range

Prompt line: Just checking, what class would you give `RSEFTLMASRIGKDLSNTFAKLEK` here?
Response line: center range

Prompt line: Just checking, what class would you give `RSEFTLMAKRIGKDLSNTKAKLEK` here?
Response line: center range

Prompt line: Just checking, what class would you give `VSEFTLMAKRIGKDLSNTFAKLEK` here?
Response line: center range

Prompt line: Just checking, what class would you give `NSEFTLMAKRIGKDLSNTFAKLEK` here?
Response line: bottom range

Prompt line: Just checking, what class would you give `RSEFTLMAKRIGKDLSNHFAKLEK` here?
Response line: center range

Prompt line: Just checking, what class would you give `RSEFTLMAKRIGPDLSNTFAKLEK` here?
Response line: center range

Prompt line: Just checking, what class would you give `RSEFTLMAKRIGKDLSNTPAKLEK` here?
Response line: top range

Prompt line: Just checking, what class would you give `RSEFTLMAKRIGKDLSNTFAKAEK` here?
Response line: center range

Prompt line: Just checking, what class would you give `RSEFTLMAKRIGKLLSNTFAKLEK` here?
Response line: center range

Prompt line: Just checking, what class would you give `RSEFTLMAKRIGKDISNTFAKLEK` here?
Response line: top range

Prompt line: Just checking, what class would you give `RSEFTLMAKRINKDLSNTFAKLEK` here?
Response line: bottom range

Prompt line: Just checking, what class would you give `RSEFTPMAKRIGKDLSNTFAKLEK` here?
Response line: center range

Prompt line: Just checking, what class would you give `RSEFTLMAKRIGKDLSNTHAKLEK` here?
Response line: top range

Prompt line: Just checking, what class would you give `RSEFTLMAKYIGKDLSNTFAKLEK` here?
Response line: bottom range

Prompt line: Just checking, what class would you give `RSEFTLMAKRIGKDLSNMFAKLEK` here?
Response line: center range

Prompt line: Just checking, what class would you give `RSEFTLMAKRIGKDLSNTGAKLEK` here?
Response line: top range

Prompt line: Just checking, what class would you give `RSEFTLMAKRTGKDLSNTFAKLEK` here?
Response line: top range

Prompt line: Just checking, what class would you give `RSEFTLMAKRIRKDLSNTFAKLEK` here?
Response line: center range

Prompt line: Just checking, what class would you give `RSEFTLMAKRIGVDLSNTFAKLEK` here?
Response line: center range

Prompt line: Just checking, what class would you give `RSEFTLMAKRIGKDLSNTTAKLEK` here?
Response line: top range

Prompt line: Just checking, what class would you give `RSEFTLMAKRIGKDLSNSFAKLEK` here?
Response line: bottom range

Prompt line: Just checking, what class would you give `RSEFTLMAKRIGKDLSNTDAKLEK` here?
Response line: top range

Prompt line: Just checking, what class would you give `RSEFTLMAIRIGKDLSNTFAKLEK` here?
Response line: bottom range

Prompt line: Just checking, what class would you give `HSEFTLMAKRIGKDLSNTFAKLEK` here?
Response line: top range

Prompt line: Just checking, what class would you give `RSEFTLMAKRIGGDLSNTFAKLEK` here?
Response line: center range

Prompt line: Just checking, what class would you give `RSEFTLMAKRIGKDLSTTFAKLEK` here?
Response line: center range

Prompt line: Just checking, what class would you give `RSEFTLMAKRIGKDLSNTSAKLEK` here?
Response line: top range

Prompt line: Just checking, what class would you give `RSEFTLMAKRIGKDLSNYFAKLEK` here?
Response line: top range

Prompt line: Just checking, what class would you give `RSEFTLMAKRIDKDLSNTFAKLEK` here?
Response line: center range

Prompt line: Just checking, what class would you give `RSEFTLFAKRIGKDLSNTFAKLEK` here?
Response line: top range

Prompt line: Just checking, what class would you give `RSEFTLRAKRIGKDLSNTFAKLEK` here?
Response line: center range

Prompt line: Just checking, what class would you give `RSEFTLMAKRIGADLSNTFAKLEK` here?
Response line: bottom range

Prompt line: Just checking, what class would you give `RSQFTLMAKRIGKDLSNTFAKLEK` here?
Response line: top range

Prompt line: Just checking, what class would you give `RSEFTLMAKRIGKDLSNTFAKLCK` here?
Response line: top range

Prompt line: Just checking, what class would you give `RSEFTLMAKRYGKDLSNTFAKLEK` here?
Response line: center range

Prompt line: Just checking, what class would you give `RSEFTLMAKRIGKDLSNTMAKLEK` here?
Response line: bottom range

Prompt line: Just checking, what class would you give `PSEFTLMAKRIGKDLSNTFAKLEK` here?
Response line: center range

Prompt line: Just checking, what class would you give `RSEVTLMAKRIGKDLSNTFAKLEK` here?
Response line: bottom range

Prompt line: Just checking, what class would you give `RSEFTLMAKRRGKDLSNTFAKLEK` here?
Response line: top range

Prompt line: Just checking, what class would you give `RSEFTHMAKRIGKDLSNTFAKLEK` here?
Response line: bottom range

Prompt line: Just checking, what class would you give `TSEFTLMAKRIGKDLSNTFAKLEK` here?
Response line: center range
